Consider the following compounds; for each one, report its growth.
- Tested on: HS 578T breast
- assay-summary: NCI-60 one-dose screen, 48 h (100 = growth as untreated, 0 = no growth, -100 = all killed)
- conditions-used: 10 µM unless noted
The panel holds about 83,000 compounds, 20% with a hit somewhere; the sample as a whole holds those more often.
Write it as a number; the unit % goes unstated.

Can you share its growth? I mean this compound: `COc1cccc(Cc2cc(-c3ccccc3)nn(CC(=O)c3ccccc3)c2=O)c1`
66.9

Using the record for `COc1ccc(N)c(N)c1` , report its growth.
110

I am curious: what growth value has been reported for `COc1nc2ccc(C)cc2cc1-c1nc2c(cnn2-c2ccc(Br)cc2)c(=O)[nH]1` ?
34.3

What value of growth has been recorded for this entry: `Cn1cc(-c2ccc3cc(-c4ccc(CC(=O)Nc5cc(C(C)(C)C)nn5C)cc4)cnc3c2)cn1`
-1.77

Look at this compound and give its reported growth. `C=C1CC[C@H](C(C)C)[C@@H]2[C@H]1[C@H]1CC(=C)[C@@H](O)CC[C@@](C)(O)[C@@H]2O1`
92.4

I'd like to know its growth. The compound in question is `COc1cc(C(=O)c2cnc(-c3c[nH]c4cccc(C)c34)[nH]2)cc(OC)c1OC`
21.2

State the recorded growth for this entry: `COc1ccc(-c2[nH]ncc2-c2cc3c(c(OC)c2)OCC(=O)N3)cc1`
-2.19

Any idea what growth was measured for COc1ccc(S(=O)(=O)n2cc(C3OC(c4cc(OC)c(OC)c(OC)c4)=NN3C(C)=O)c3ccccc32)cc1OC (stereo not drawn) ?
92.3

Could you tell me which growth is on file for `CCc1cccc2c1S/C(=C/c1ccc(OC)cc1)C2=O` ?
41.5

// growth lookup, key: `COc1cc(CCC[P+](c2ccccc2)(c2ccccc2)c2ccccc2)c(OC)c(OC)c1OC`
51.8

Give its growth value. Item: CC(=O)OC[C@H]1OC(Sc2sc(C(=O)c3ccc(Cl)cc3)c(N)c2-c2nc3ccccc3s2)[C@H](OC(C)=O)[C@@H](OC(C)=O)[C@@H]1OC(C)=O (stereo partly drawn)
71.4

Could you tell me which growth is on file for `O=c1c2cc(F)ccc2sc2c(NCCN3CCOCC3)nc3ccccc3c12` ?
63.3

What value of growth has been reported for the following compound? `COc1ccc(-c2[nH]c3ccc(OC)cc3c2/C=C(\C#N)S(=O)(=O)c2ccccc2)cc1`
13.4
